Test system: 379773-124-R-J2-PDC spheroid viability
method-notes: Anticancer human tumor 379773-124-R-J2-PDC patient-derived endometrial carcinoma cell line growth inhibition [POLQ]
condition-notes: second compound 0.0316 µM; first compound 0.1 µM; active compounds read low; spheroids with HUVEC and MSC
Experimental: Multicellular complex tumor spheroid response to Polymerase (POL) inhibitors (novobiocin, ART-558, RP6685) in combination with a variety of drugs and investigational agents in selected tumor cell lines The POL inhibitors (novobiocin, ART-558, and RP6685) were evaluated both individually and in combination with standard of care and investigational anticancer small molecules within a complex spheroid model of solid tumors. . […]
recorded-metric: viability, T/C (%)
Please reply with the bare figure in % and do not write the unit itself.

Solved entries:
CCc1cc2c(N3CCc4c(cc(Cn5ccnc5)cc4-c4cn(C)nc4C(F)(F)F)C3=O)cc(C)nc2c(OC)n1 + Cc1cccc(N(C)C(=O)C2C(O)CCN2c2nc(C)cc(C(F)(F)F)c2C#N)c1
80
CC1COCCN1c1cc(-c2ccnn2C)c2ccnc(-c3ccn[nH]3)c2n1 (stereo not drawn) + Cc1cccc(N(C)C(=O)C2C(O)CCN2c2nc(C)cc(C(F)(F)F)c2C#N)c1
49.9

// viability, T/C value for C=CC(=O)N1CCN(c2nc(=O)n(-c3c(C)ccnc3C(C)C)c3nc(-c4c(O)cccc4F)c(F)cc23)C(C)C1 (stereo not drawn) + COC1C(OC(N)=O)C(O)C(Oc2ccc3c(O)c(NC(=O)c4ccc(O)c(CC=C(C)C)c4)c(=O)oc3c2C)OC1(C)C : 78.7

###

Test system: 379773-124-R-J2-PDC spheroid viability
method-notes: Anticancer human tumor 379773-124-R-J2-PDC cell line growth inhibition [POLQ];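 also: spheroids exposed to drugs for seven days before readout; percent viability relative to DMSO vehicle control taken as 100%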
condition-notes: second compound 3.16 µM; first compound 0.0316 µM; active compounds read low; spheroids with HUVEC and MSC
viability, T/C class ranges: lower band = under 80%, central band = from 80% up to 90%, upper band = 90% and over

O=C(c1cc(Cc2n[nH]c(=O)c3ccccc23)ccc1F)N1CCN(C(=O)C2CC2)CC1 + Cc1cccc(N(C)C(=O)C2C(O)CCN2c2nc(C)cc(C(F)(F)F)c2C#N)c1
lower band

Could you tell me which band CC1COCCN1c1cc(C2(S(C)(=N)=O)CC2)nc(-c2ccnc3[nH]ccc23)n1 (stereo not given) + Cc1cccc(N(C)C(=O)C2C(O)CCN2c2nc(C)cc(C(F)(F)F)c2C#N)c1 belongs to?
central band

Where would CCCS(=O)(=O)Nc1ccc(F)c(C(=O)c2c[nH]c3ncc(-c4ccc(Cl)cc4)cc23)c1F + COC1C(OC(N)=O)C(O)C(Oc2ccc3c(O)c(NC(=O)c4ccc(O)c(CC=C(C)C)c4)c(=O)oc3c2C)OC1(C)C land among the classes by reported viability, T/C?
lower band

// return the class label for C=CC(=O)N1CCN(c2nc(=O)n(-c3c(C)ccnc3C(C)C)c3nc(-c4c(O)cccc4F)c(F)cc23)C(C)C1 (stereo not given) + Cc1cccc(N(C)C(=O)C2C(O)CCN2c2nc(C)cc(C(F)(F)F)c2C#N)c1
central band

Which category does the recorded viability, T/C put O=C(Nc1ccc(O)c(NS(=O)(=O)c2ccc(F)cc2)c1)c1ccc(-c2ccccc2)cc1 + Nc1ccc(C#CCN(C(=O)Cc2ncc(C(F)(F)F)cc2C(F)(F)F)c2ccc(F)cc2)nn1 in?
upper band

Band for the recorded viability, T/C of O=c1[nH]cc(F)c(=O)[nH]1 + Cc1cccc(N(C)C(=O)C2C(O)CCN2c2nc(C)cc(C(F)(F)F)c2C#N)c1 ?
central band
